B1: CDC14A (parent)
chain: LWVQGDIFRSKLKNRPSSEGSINK

variants of: B1; assay: protein stability index of a GFP-peptide fusion (GPS, HEK-293T) (PSI 1-6); higher = more stable; settings: c terminus: a fixed tail appended;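 further: lentivirally expressed fusions sorted by FACS into six bins by GFP to DsRed ratio, PSI derived from sequencing read proportions per bin multiplied by bin number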
propertyLabel: protein stability index
Please respond with just the number, no unit label.

S18H ... 3.27
L12Q ... 2.92
I7L ... 2.04

For the variant "K13E" , what protein stability index is on record?
2.53

For the variant "G5M" , what protein stability index is on record?
1.75

For the variant "N23L" , what protein stability index is on record?
2.1
